Taken from paper PMC5540273.

Test system: JNK2
Construct: gene MAPK9
STUDY_CONDITIONS: concentration: 1 μM, replicates: in singlicate; n = 1;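 also: KINOMEscan kinase panel screen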
Listed next: entries and their corresponding %Inh.
Numbers only; they are read as %.

// known answers, use as guide
1. CCn1c(-c2ccccc2)nc2cnccc21
3
2. CCc1ccc(-c2ccc3c(c2)-c2n[nH]cc2S(=O)(=O)N3C)cc1
0
3. Cc1ccc(NC(=O)Nc2ccc(Cl)cc2)cc1-c1ccc(C(=O)Nc2ccncc2)cc1
7
4. Cc1ccc(NC(=O)Nc2ccc(Cl)c(C(F)(F)F)c2)cc1-c1ccc(C(=O)Nc2ccncc2)cc1
14

Prompt: Sample CNc1nc(-c2ccc3c(N)n[nH]c3c2)cc(N2C[C@@H](C(=O)NC3CCCCC3)OC[C@H]2C)n1 — what was its %Inh?
Response: 0

Prompt: Sample Nc1cccc(-c2ccc3c(N)n[nH]c3c2)n1 — what was its %Inh?
Response: 2

----------
System: CAMK1D
STUDY_CONDITIONS: concentration: 1 μM, replicates: in singlicate; n = 1
ASSAY_READOUT: %Inh (%)
Numbers only; they are read as %.

// known answers, use as guide
1) Cc1ccc(NC(=O)Nc2ccccc2F)cc1-c1ccc(C(=O)Nc2ccncc2)cc1
33
2) Cc1ccc(NC(=O)Nc2ccccc2)cc1-c1ccc(C(=O)Nc2ccncc2)cc1
20
3) Cc1cccc2c(-c3ccncn3)c(-c3ccc(F)cc3)nn12
0

Prompt: Find the measured %Inh: item Fc1ccc(-c2nc[nH]c2-c2ccncc2)cc1 , target or system CAMK1D.
Response: 10

Prompt: Find the measured %Inh: item Fc1ccc(-c2nn3cccc(F)c3c2-c2ccncc2)cc1 , target or system CAMK1D.
Response: 10

Prompt: Find the measured %Inh: item Cn1cncc1C(=O)NC1CCN(c2ccnc(Nc3ccc(F)cc3)n2)C1 (stereo not shown) , target or system CAMK1D.
Response: 22

Prompt: Find the measured %Inh: item Cn1cnc2c(N)ncnc21 , target or system CAMK1D.
Response: 0

Prompt: Find the measured %Inh: item Cc1ccccc1Cn1ccn2c(=O)cc(N3CCOCC3)nc12 , target or system CAMK1D.
Response: 0

----------
Test system: PIM3
STUDY_CONDITIONS: concentration: 1 μM, replicates: in singlicate; n = 1
Under this convention, Satisfied denotes %Inh strictly below 3% and Not satisfied denotes %Inh at or above 3%.

1. O=C1NC(=O)C(c2ccc(Cl)cc2)=C1Nc1cccc(Cl)c1
Satisfied
2. COc1cc2ncnc(Nc3cccc(Br)c3)c2cc1OC.Cl
Not satisfied
3. CNc1nc(-c2ccc3c(N)n[nH]c3c2)cc(N2C[C@@H](C(=O)Nc3ccccc3)CC[C@H]2C)n1
Satisfied

Prompt: Decide: %Inh of Cl.Cl.Cl.N#Cc1ccc(CCNc2nccc(-c3cccc(CN4CCNCC4)c3)n2)cc1 strictly below 3%?
Response: Not satisfied

Prompt: Decide: %Inh of COC(=O)c1cccc(NC(=O)NC2CCN(c3ccnc(Nc4ccc(F)cc4)n3)C2)c1 (stereo not drawn) strictly below 3%?
Response: Satisfied

----------
Tested on: MAP3K1
STUDY_CONDITIONS: concentration: 1 μM, replicates: in singlicate; n = 1
ASSAY_READOUT: %Inh (%)
Numbers only; they are read as %.

1. Cc1ccc(NC(=O)Nc2ccccc2)cc1-c1ccc(C(=O)Nc2ccncc2)cc1 [GSK1398471]
8
2. COc1cc2ncnc(Nc3cccc(Br)c3)c2cc1OC.Cl [GI230329]
2
3. COc1ccc2cc(-c3nc(-c4ccccc4C(C)C)[nH]c3-c3ccncc3)ccc2c1 [SB-660566]
20
4. Nc1ncnc2occ(-c3ccc4c(c3)CCN4C(=O)Cc3cc(F)ccc3F)c12 [GSK2645446]
0
5. Cc1ccc(NC(=O)c2ccc(Cl)cc2)cc1-c1ccc(C(=O)Nc2ccncc2)cc1 [GSK1398467]
12
6. CN1c2ccc(-c3ccc(C(N)=O)cc3)cc2-c2[nH]ncc2S1(=O)=O
0

Note: attention shifts to another entry.
Prompt: Sample CCc1ccc(-c2ccc3c(c2)-c2n[nH]cc2S(=O)(=O)N3C)cc1 — what was its %Inh?
Response: 0

----------
System: NIM1
Construct: gene MGC42105
STUDY_CONDITIONS: concentration: 1 μM, replicates: in singlicate; n = 1
ASSAY_READOUT: %Inh
# output: numeric value plus its unit

// known answers, use as guide
1) COC(=O)C(NC(=O)NC1CCN(c2ccnc(Nc3ccc(F)cc3)n2)C1)c1ccccc1 (centres unmarked) [GSK1379712]
37%
2) COc1ccc(Nc2nccc(NCCNC(=O)Nc3cc(C)ccc3C)n2)cc1 [GSK1379899]
0%
3) Cc1ccc(NC(=O)Nc2ccccc2F)cc1-c1ccc(C(=O)Nc2ccncc2)cc1 [GSK1398477]
0%

Prompt: Sample Fc1ccc(-c2nc3n(c2-c2ccncc2)CCS3)cc1 [GI98581] — what was its %Inh?
Response: 10%

Prompt: Sample COc1cccc(CNC(=O)NC2CCN(c3ccnc(Nc4ccc(F)cc4)n3)C2)c1 (centres unmarked) [GSK1379723] — what was its %Inh?
Response: 14%

----------
System: SGK2
STUDY_CONDITIONS: concentration: 1 μM, replicates: in singlicate; n = 1
ASSAY_READOUT: %Inh (%)
Numbers only; they are read as %.

// known answers, use as guide
1) COC(=O)c1cccc(NC(=O)NC2CCN(c3ccnc(Nc4ccc(F)cc4)n3)C2)c1 (stereo not shown) [GSK1379725]
0
2) CC(=O)c1c(C)c2cnc(Nc3ccc(N4CCNCC4)cn3)nc2n(C2CCCC2)c1=O
0
3) Fc1ccc(-c2nc3n(c2-c2ccncc2)CCS3)cc1 [GI98581]
6

Note: attention shifts to another entry.
Prompt: Sample CNc1nc(-c2ccc3c(N)n[nH]c3c2)cc(N2C[C@@H](C(=O)Nc3ccccc3)CC[C@H]2C)n1 [GSK2298859] — what was its %Inh?
Response: 0

----------
Listed next: entries and their corresponding %Inh.
System: MST3
Construct: gene STK24
STUDY_CONDITIONS: concentration: 1 μM, replicates: in singlicate; n = 1
Numbers only; they are read as %.

Prompt: Sample CN1c2ccc(-c3ccc(C(N)=O)cc3)cc2-c2[nH]ncc2S1(=O)=O — what was its %Inh?
Response: 0

Prompt: Sample Cc1cnc(N)c(/C=C/c2cncc(C(=O)NCCc3ccc(Cl)cc3Cl)c2)c1.Cl [GSK190937] — what was its %Inh?
Response: 5

Prompt: Sample CCCCc1nn2ncccc2c1-c1ccnc(NC2CC2)n1 [GW684374] — what was its %Inh?
Response: 0

Prompt: Sample Cc1ccccc1Cn1ccn2c(=O)cc(N3CCOCC3)nc12 [GSK2269905] — what was its %Inh?
Response: 0

Prompt: Sample COc1nccc(-c2c(-c3ccc(F)cc3)ncn2CCCN2CCOCC2)n1 [SB-282852] — what was its %Inh?
Response: 0

----------
Listed next: entries and their corresponding %Inh.
System: SNARK
Construct: gene NUAK2
STUDY_CONDITIONS: concentration: 1 μM, replicates: in singlicate; n = 1
Numbers only; they are read as %.

// known answers, use as guide
1) COc1ccc(Nc2nccc(NCCNC(=O)Nc3cc(C)ccc3C)n2)cc1 [GSK1379899]
0
2) CC(=O)c1cccc(NC(=O)NC2CCN(c3ccnc(Nc4ccc(F)cc4)n3)C2)c1 (centres unmarked) [GSK1379710]
19
3) CNc1nc(-c2ccc3c(N)n[nH]c3c2)cc(N2C[C@@H](C(=O)NC3CCCCC3)OC[C@H]2C)n1 [GSK2375584]
30
4) Cc1ccc(NC(=O)Nc2ccc(Cl)cc2)cc1-c1ccc(C(=O)Nc2ccncc2)cc1 [GSK1398472]
0
5) O=C(Nc1n[nH]c2nc(-c3ccco3)c(Br)cc12)C1CCN(Cc2ccccc2)C1.O=C(O)[C@H](O)[C@@H](O)C(=O)O (centres unmarked) [SB-742034]
11
6) Fc1ccc(-c2nc3n(c2-c2ccncc2)CCS3)cc1 [GI98581]
0

Prompt: Sample COc1ccc2cc(-c3nc(-c4ccccc4C(C)C)[nH]c3-c3ccncc3)ccc2c1 [SB-660566] — what was its %Inh?
Response: 0

Prompt: Sample Cc1ccc(NC(=O)Nc2ccccc2F)cc1-c1ccc(C(=O)Nc2ccncc2)cc1 [GSK1398477] — what was its %Inh?
Response: 0

----------
Listed next: entries and their corresponding %Inh.
System: NIM1
Construct: gene MGC42105
STUDY_CONDITIONS: concentration: 1 μM, replicates: in singlicate; n = 1
Numbers only; they are read as %.

// known answers, use as guide
1. Cn1cnc2c(N)ncnc21 [SKF-97623]
3
2. CC(=O)c1c(C)c2cnc(Nc3ccn(C)n3)nc2n(C2CCCC2)c1=O
2
3. COc1ccc(Nc2nccc(N3CCC(NC(=O)c4cc5ccccc5s4)C3)n2)cc1 (centres unmarked) [GSK1379738]
9
4. Cn1cncc1C(=O)NC1CCN(c2ccnc(Nc3ccc(F)cc3)n2)C1 (centres unmarked) [GSK1379717]
24

Prompt: Sample O=C(Nc1n[nH]c2cc(-c3ccsc3)ccc12)C1CC1 [SB-732932] — what was its %Inh?
Response: 5
